PROTOCOL SUMMARY: NCI Yeast Anticancer Drug Screen. Data for the sgs1 mgt1 strain (AID 161);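 further: 0% = growth of cultures given vehicle only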
CONDITION: S. cerevisiae sgs1 mgt1 strain, at 50.0 µM, stronger effect = higher value
The panel holds about 79,000 compounds, 15% with a hit somewhere; the sample as a whole holds those more often.
Listing of entries alongside the reported growth inhibition.
PARAMETER: growth inhibition (%)

COMPOUND: N#CSCc1c(Cl)c(Cl)c(CSC#N)c(Cl)c1Cl
PARAMETER: growth inhibition
RECORDED VALUE: 2.15
--
COMPOUND: Cn1c(=O)[nH]c2c(c1=O)CCCS2
PARAMETER: growth inhibition
RECORDED VALUE: 20.4
--
COMPOUND: Nc1c(Cl)ncnc1Nc1ccc(O)cc1
PARAMETER: growth inhibition
RECORDED VALUE: 5.2
--
COMPOUND: Cc1cccc(N=C(Nc2cccc(C)n2)Nc2cccc(C)n2)n1
PARAMETER: growth inhibition
RECORDED VALUE: 35.6
--
COMPOUND: C=COS(=O)O
PARAMETER: growth inhibition
RECORDED VALUE: -4.85
--
COMPOUND: O=[N+]([O-])c1ccc(P(=O)(Nc2ccc3ccccc3c2)Nc2ccc3ccccc3c2)cc1
PARAMETER: growth inhibition
RECORDED VALUE: 15.5
--
COMPOUND: CCCCCCCCCCCCOc1ccccn1
PARAMETER: growth inhibition
RECORDED VALUE: -7.65
--
COMPOUND: CC(C)c1ccc(/C(O)=C/C(=O)C(=O)/C=C(/O)c2ccc(C(C)C)cc2)cc1
PARAMETER: growth inhibition
RECORDED VALUE: 1.25
--
COMPOUND: O=C(CCCc1ccc([N+](=O)[O-])cc1)c1ccccc1
PARAMETER: growth inhibition
RECORDED VALUE: 1.2
--
COMPOUND: CC(O)CN1CCCC1 (configuration not stated)
PARAMETER: growth inhibition
RECORDED VALUE: -4
--
COMPOUND: c1cncc(CCc2ccncc2)c1
PARAMETER: growth inhibition
RECORDED VALUE: -27.2
--
COMPOUND: O=C(O)COc1ccc2ccccc2c1 (tested in a mixture with another compound)
PARAMETER: growth inhibition
RECORDED VALUE: -26.3

###

Listing of entries alongside the reported growth inhibition.
PROTOCOL SUMMARY: NCI Yeast Anticancer Drug Screen. Data for the mec2-1 strain (AID 157)
CONDITION: S. cerevisiae mec2-1 strain, at 50.0 µM, stronger effect = higher value
About 79,000 compounds went through this panel and 15% of them were active in at least one assay; those are over-represented in the sample as a whole.

MOLECULE: CC(=O)C1CCC2C3CC=C4CC(O)CCC4(C)C3CCC12C (stereo unspecified)
UNIT NAME: %
growth inhibition: 18.4
--
MOLECULE: CCOC(=O)c1[nH]c(CC(=O)O)c(C(=O)OC)c1C
UNIT NAME: %
growth inhibition: 14.8
--
MOLECULE: CC1(C)CC2(CC(C)(C)N1O)NC(=O)OC2=O
UNIT NAME: %
growth inhibition: -5.3
--
MOLECULE: O=C(/C=C(\C(=O)c1ccccc1)c1ccccc1)c1ccc(Cl)cc1
UNIT NAME: %
growth inhibition: 8.5
--
MOLECULE: CCOc1ccc(Cc2ccccc2)cc1
UNIT NAME: %
growth inhibition: -23.9
--
MOLECULE: O=C(C[n+]1csc2ccccc21)c1ccc(-c2ccccc2)cc1
UNIT NAME: %
growth inhibition: 9.8

###

PROTOCOL SUMMARY: NCI Yeast Anticancer Drug Screen. Data for the mec2-1 strain (AID 157)
CONDITION: S. cerevisiae mec2-1 strain, at 50.0 µM, stronger effect = higher value
This is part of a sample that, as a whole, favours compounds with a hit. Of some 79,000 tested, about 15% had one in any assay.
Listing of entries alongside the reported growth inhibition.

MOLECULE: O=C(O)CN1CCN(CC(=O)O)CCN(CC(=O)O)CCN(CC(=O)O)CC1
UNIT NAME: %
growth inhibition: -0.55

MOLECULE: CC(=O)Nc1cc(Cl)cc2c1[nH]c(=O)c1ccccc12
UNIT NAME: %
growth inhibition: 5.35

MOLECULE: NC(=O)NC(c1ccc(O)cc1)c1cc2c(cc1O)OCO2 (centres undefined)
UNIT NAME: %
growth inhibition: 1.9

MOLECULE: Cc1[nH]c(=O)[nH]c(=O)c1/C=C/C(=O)NC(CO)CS(=O)CS(C)=O (centres undefined)
UNIT NAME: %
growth inhibition: -11.2

MOLECULE: Cc1ncc(CN2CSC(CCO)C2C)c(N)n1 (centres undefined)
UNIT NAME: %
growth inhibition: 8.4

MOLECULE: CCOC(=O)c1ccc(NC(=O)CCCCl)cc1
UNIT NAME: %
growth inhibition: -14.2

MOLECULE: CC(=O)CC(=O)Nc1cc(C(F)(F)F)ccc1Cl
UNIT NAME: %
growth inhibition: -25.6

MOLECULE: CN1CCN(CN2C(=O)C3C4C=CC(C3C2=O)C2C(=O)N(CN3CCN(C)CC3)C(=O)C42)CC1 (centres undefined)
UNIT NAME: %
growth inhibition: 5.95

MOLECULE: c1ccc2c(c1)SCCc1nncn1-2
UNIT NAME: %
growth inhibition: 7.3

MOLECULE: O=C(/C=C/c1ccc(O)c(O)c1)OC1CC(O)(C(=O)O)CC(O)C1O (centres undefined)
UNIT NAME: %
growth inhibition: 5.9

MOLECULE: CCN1c2ccccc2CC(C#N)(CCN(C)C)c2ccccc21 (centres undefined)
UNIT NAME: %
growth inhibition: 5.45

MOLECULE: COc1ncnc2ccccc12
UNIT NAME: %
growth inhibition: -16.8

MOLECULE: C/C(CCC(=O)O)=N\NC(=O)COc1ccc(Cl)cc1Cl
UNIT NAME: %
growth inhibition: -0.15

MOLECULE: O=c1cc(NCc2c(Cl)cccc2[N+](=O)[O-])[nH]c(=O)[nH]1
UNIT NAME: %
growth inhibition: 37.5

MOLECULE: O=c1c(-c2c(-c3ccccc3)oc3ccc(Cl)cc3c2=O)c(-c2ccccc2)oc2ccc(Cl)cc12
UNIT NAME: %
growth inhibition: 3.9

MOLECULE: CCCOC(=O)Nc1cccc(C)c1
UNIT NAME: %
growth inhibition: -5.65

MOLECULE: CCOC(=O)c1[nH]n(-c2ccccc2)c(=O)c1/C=N/C(=S)Nc1c(CC)cccc1CC
UNIT NAME: %
growth inhibition: -29.2

MOLECULE: CC1C(C(=O)NCC(c2ccccc2)c2ccccc2)CC2CCCCN21 (centres undefined)
UNIT NAME: %
growth inhibition: -4.75

MOLECULE: CCN(CC)CCNC(=O)c1ccccc1NC(=O)C(=O)Nc1ccccc1C(=O)NCCN(CC)CC
UNIT NAME: %
growth inhibition: -13.2

MOLECULE: C/C(C=C(C#N)C#N)=C\c1ccc(F)cc1
UNIT NAME: %
growth inhibition: 28.1

MOLECULE: COc1cc2c(C)nc3c4cc5c(cc4ccc3c2cc1OC)OCO5
UNIT NAME: %
growth inhibition: 8.2

MOLECULE: O=c1c(Br)c(-c2ccccc2)[nH]c2ccccc12
UNIT NAME: %
growth inhibition: -12.8

MOLECULE: CS(=O)(=O)OC1CCC2CCCC1(C(=O)O)C2 (centres undefined)
UNIT NAME: %
growth inhibition: -6.6

MOLECULE: O=C(/C=C/c1ccccc1)c1ccc(Oc2ccccc2)cc1
UNIT NAME: %
growth inhibition: -12.8

###

PROTOCOL SUMMARY: NCI Yeast Anticancer Drug Screen. Data for the bub3 strain (AID 167)
CONDITION: S. cerevisiae bub3 mutant strain, at 50.0 µM
This is part of a sample that, as a whole, favours compounds with a hit. Of some 79,000 tested, about 15% had one in any assay. Calls of active or inactive are those of the source. No stated cut-off is given here; in the data, active means growth inhibition above about 70%; inactive means the rest.
Outcomes: TRUE = active, FALSE = inactive

MOLECULE: COc1cc(C2SCC(=O)N2c2ccc(-n3c(-c4ccccc4)nc4ccccc4c3=O)cc2)ccc1O (centres undefined)
CLASS: FALSE
--
MOLECULE: O=c1c(Cl)cc(Cl)cn1S(=O)(=O)c1ccc([N+](=O)[O-])cc1
CLASS: TRUE
--
MOLECULE: COc1ccc(/C(=N\N=C(N)N)C(c2ccc(OC)cc2)C2OC(=O)c3ccccc32)cc1 (centres undefined)
CLASS: FALSE
--
MOLECULE: CO[C@H]1CC2CC1C1C3=C(NC21)C1(O)C[C@H]2CN(CC3)C1C[C@@H]2C(C)CO (some centres undefined)
CLASS: FALSE
--
MOLECULE: Nc1nc(Cl)nc(Cl)n1
CLASS: FALSE
--
MOLECULE: COc1ccc(NC(=O)Oc2ccc(C#N)cc2)cc1
CLASS: FALSE
--
MOLECULE: Oc1ccc(N=Nc2ccccc2)c(O)c1
CLASS: FALSE
--
MOLECULE: Cc1cccc(NC(=O)NC(O)C(Cl)(Cl)Cl)c1 (centres undefined)
CLASS: FALSE
--
MOLECULE: CCN(CC)c1nc2c(c(=O)n(C)c(=O)n2C)n1CCCNCC(O)c1ccc(O)c(O)c1 (centres undefined)
CLASS: FALSE
--
MOLECULE: Cc1cc(C)c(F)c(C)c1N
CLASS: FALSE
--
MOLECULE: CN(C)c1nnnn1Cc1ccccc1
CLASS: FALSE
--
MOLECULE: C[CH2][Ge]([CH2]C)[CH2]C.C[CH2][Ge]([CH2]C)[CH2]C.C[CH2][Ge]([CH2]C)[S][Ge]([CH2]C)[CH2]C
CLASS: FALSE
--
MOLECULE: CCOC(=O)c1c(/N=C/c2cc(Br)cc(Br)c2O)sc2c1CCCC2
CLASS: FALSE
--
MOLECULE: O=[N+]([O-])c1cc(F)cc(I)c1
CLASS: FALSE
--
MOLECULE: Nc1cccc(N)n1.[Cu+2]
CLASS: FALSE
--
MOLECULE: CSCCNC(=O)CS(=O)(=O)c1ccc(C)cc1
CLASS: FALSE
--
MOLECULE: O=C(/C(=C(/Br)I)c1ccccc1)c1ccccc1
CLASS: FALSE
--
MOLECULE: CC(O)(C(=O)O)C(NC(=O)c1ccccc1)C(=O)O (centres undefined)
CLASS: FALSE
--
MOLECULE: O=C1NC(N2CCCC(CO)C2)=N/C1=C\c1ccccc1 (centres undefined)
CLASS: FALSE
--
MOLECULE: O=C(OCC(COC(=O)c1ccccc1)OC(=O)c1ccccc1)c1ccccc1
CLASS: FALSE
--
MOLECULE: Cc1cc(=O)[nH]c2c(C)cccc12
CLASS: FALSE
--
MOLECULE: CC(=O)[C@@]1(O)CC[C@H]2[C@@H]3C[C@H](C)C4=CC(=O)C=C[C@]4(C)[C@@]3(F)[C@@H](O)C[C@@]21C
CLASS: FALSE
--
MOLECULE: ClC(c1ccccc1)c1cccc2ccccc12 (centres undefined)
CLASS: FALSE
--
MOLECULE: O=S(=O)(Nc1ccccc1)c1cc(O)ccc1O
CLASS: FALSE
